# TARGET_UNDER_TEST: F876L mutant Androgen Receptor (AR-F876L) (Homo sapiens, UniProt P10275, F877L)
# Construct: expressed in transfected cells; host or cells: LNCaP (LNCaP F876L)
# Sequence (P10275 whole entry F877L): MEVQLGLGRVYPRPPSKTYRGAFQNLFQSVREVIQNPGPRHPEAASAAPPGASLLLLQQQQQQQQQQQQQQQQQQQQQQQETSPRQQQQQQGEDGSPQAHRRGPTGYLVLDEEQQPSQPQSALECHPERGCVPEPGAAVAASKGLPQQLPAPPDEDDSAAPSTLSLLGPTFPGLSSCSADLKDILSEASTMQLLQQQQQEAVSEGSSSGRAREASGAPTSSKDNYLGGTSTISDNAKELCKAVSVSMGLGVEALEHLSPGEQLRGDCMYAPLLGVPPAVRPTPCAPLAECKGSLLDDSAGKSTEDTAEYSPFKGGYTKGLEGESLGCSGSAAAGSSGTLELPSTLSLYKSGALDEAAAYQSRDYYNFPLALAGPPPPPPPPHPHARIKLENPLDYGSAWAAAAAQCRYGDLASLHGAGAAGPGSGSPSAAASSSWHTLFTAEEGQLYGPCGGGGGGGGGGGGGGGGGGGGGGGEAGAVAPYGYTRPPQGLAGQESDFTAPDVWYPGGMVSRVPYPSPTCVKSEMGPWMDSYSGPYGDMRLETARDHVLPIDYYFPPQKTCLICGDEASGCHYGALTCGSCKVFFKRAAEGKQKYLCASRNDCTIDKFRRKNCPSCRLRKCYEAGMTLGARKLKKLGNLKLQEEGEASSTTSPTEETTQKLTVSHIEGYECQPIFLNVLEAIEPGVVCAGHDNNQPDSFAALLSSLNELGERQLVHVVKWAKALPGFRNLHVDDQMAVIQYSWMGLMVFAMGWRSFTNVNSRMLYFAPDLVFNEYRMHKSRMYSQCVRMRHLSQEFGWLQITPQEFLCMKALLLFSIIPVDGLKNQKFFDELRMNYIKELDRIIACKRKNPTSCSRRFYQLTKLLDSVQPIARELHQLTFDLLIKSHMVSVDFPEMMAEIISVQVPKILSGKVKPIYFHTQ
# ASSAY_PROCEDURE: LNCaP-AR-F876L AG reporter assay (ARE firefly luciferase, agonist mode)
# Format: cell-based
# SETTINGS: maximum % stimulation (agonist response) over tested concentration range; read-out: LNCaP-AR-F876L AG MAX % Stim
OBSERVED_PROPERTY: Emax (%)

>>> observed_value("Cc1cc(N2C(=O)C3(CCC3)N(c3ccc(OCCN4CCN(C)CC4)cc3)C2=S)cnc1C#N")
0.1

A. CN1CCN(CCCNC(=O)c2ccc(N3C(=S)N(c4cnc(C#N)c(C(F)(F)F)c4)C(=O)C34CCC4)cc2F)CC1
B. N#Cc1ncc(N2C(=O)C3(CCC3)N(c3ccc(C(=O)NCC4CCCC4)c(F)c3)C2=S)cc1C(F)(F)F
**Q:** Decide: A or B , by lowest recorded Emax. Refer to your chosen item by its label in the answer.
**A:** B

a. CN1CCN(CCNC(=O)c2ccc(N3C(=S)N(c4cnc(C#N)c(C(F)(F)F)c4)C(=O)C34CCC4)cc2F)CC1
b. N#Cc1ncc(N2C(=O)C3(CCC3)N(c3ccc(C(=O)NCc4cnccn4)c(F)c3)C2=S)cc1C(F)(F)F
c. N#Cc1ncc(N2C(=O)C3(CCC3)N(c3ccc(C(=O)NCc4ccco4)c(F)c3)C2=S)cc1C(F)(F)F
d. N#Cc1ncc(N2C(=O)C3(CCC3)N(c3ccc(C(=O)NCCc4ccccc4)c(F)c3)C2=S)cc1C(F)(F)F
**Q:** Hey, quick one: sort these by Emax, low to high? Arrange the labels as the request states and list them.
**A:** d, b, c, a
(d: 0%, b: 0.5%, c: 1%, a: 3%)

P. N#Cc1ncc(N2C(=O)C3(CCC3)N(c3cccc(F)c3F)C2=S)cc1C(F)(F)F
Q. CN1CCC(NC(=O)c2ccc(N3C(=S)N(c4cnc(C#N)c(C(F)(F)F)c4)C(=O)C34CCC4)cc2F)CC1
R. N#Cc1ccc(N2C(=S)N(c3cnc(C#N)c(C(F)(F)F)c3)C(=O)C23CCC3)cc1
S. Cc1cc(N2C(=O)C3(CCC3)N(c3ccc(OC4CCN(C)CC4)cc3)C2=S)cnc1C#N
**Q:** Provide the items ranked by increasing Emax. Reply with the item labels sorted in the order that was asked for.
**A:** S, Q, P, R

* * *

# TARGET_UNDER_TEST: wild-type Androgen Receptor (AR-wt) (Homo sapiens, UniProt P10275)
# Construct: expressed in transfected cells; host or cells: LNCaP (LNCaP AR (cs))
# ASSAY_PROCEDURE: LNCaP-AR-wt AG reporter assay (ARE firefly luciferase, agonist mode)
# Type: cell-based
# SETTINGS: read-out: LNCaP-AR-wt AG MAX % Stim
Known Emax of a selection of compounds
The answer is to be given in %; state only the numeric part.

>>> observed_value("CNC(=O)c1ccc(N2C(=S)N(c3cnc(C#N)c(C)c3)C(=O)C2(C)C)cc1F")
0.9
>>> observed_value("N#Cc1ncc(N2C(=O)C3(CCC3)N(c3ccc(C(=O)NCc4cccnc4)c(F)c3)C2=S)cc1C(F)(F)F")
1.5
>>> observed_value("CC(C)CCNC(=O)c1ccc(N2C(=S)N(c3cnc(C#N)c(C(F)(F)F)c3)C(=O)C23CCC3)cc1F")
0.4

# ---- query compound ----
**Q:** What does the data say about its Emax? Entry: `CN1CCC(Oc2ccc(N3C(=S)N(c4cnc(C#N)c(C(F)(F)F)c4)C(=O)C34CCC4)cc2F)CC1`
**A:** -0.1

* * *

# TARGET_UNDER_TEST: wild-type Androgen Receptor (AR-wt) (Homo sapiens, UniProt P10275)
# Construct: expressed in transfected cells; host or cells: LNCaP (LNCaP AR (cs))
# ASSAY_PROCEDURE: LNCaP-AR-wt ANT reporter assay (ARE firefly luciferase, antagonist mode)
# Type: cell-based
# SETTINGS: read-out: LNCaP-AR-wt ANT MAX % Inh
# maps each entry to its Emax
Kindly provide the numeric value in % only, without the unit symbol.

>>> observed_value("N#Cc1ncc(N2C(=O)C3(CCC3)N(c3ccc(Oc4ccncn4)cc3)C2=S)cc1C(F)(F)F")
98.8
>>> observed_value("N#Cc1ncc(N2C(=O)C3(CCC3)N(c3ccc(Oc4ccccn4)cc3)C2=S)cc1C(F)(F)F")
29
>>> observed_value("N#Cc1ncc(N2C(=O)C3(CCC3)N(c3ccccc3)C2=S)cc1C(F)(F)F")
99.2
>>> observed_value("N#Cc1ncc(N2C(=O)C3(CCC3)N(c3cccc(CO)c3)C2=S)cc1C(F)(F)F")
95.9
>>> observed_value("N#Cc1ncc(N2C(=O)C3(CCC3)N(c3cccc4ccccc34)C2=S)cc1C(F)(F)F")
99.7

**Q:** Look up Emax: `CN1CCC(Oc2ccc(N3C(=S)N(c4cnc(C#N)c(C(F)(F)F)c4)C(=O)C34CCC4)cc2F)CC1`
**A:** 99.6

**Q:** Quick check: Emax of `Cc1cncc(-c2ccc(N3C(=S)N(c4cnc(C#N)c(C)c4)C(=O)C34CCC4)cc2)c1` ?
**A:** 98.7

**Q:** Would you mind telling me what Emax value was observed for `Cc1ccc(NC(=O)c2ccc(N3C(=S)N(c4cnc(C#N)c(C)c4)C(=O)C34CCC4)cc2F)cn1` ?
**A:** 101

**Q:** Which Emax is reported for this compound? `Cc1cc(N2C(=O)C3(CCC3)N(c3ccc(Oc4ccncn4)cc3)C2=S)cnc1C#N`
**A:** 98.8

**Q:** // Emax lookup, key: `Cc1cc(N2C(=O)C3(CCC3)N(c3ccc(C4CCOCC4)cc3)C2=S)cnc1C#N`
**A:** 99.4

**Q:** Requested read-out: Emax. Entry: `Cc1cc(N2C(=O)C3(CCC3)N(c3ccc(C(=O)Nc4nccs4)c(F)c3)C2=S)cnc1C#N`
**A:** 68.6

**Q:** Need Emax of `CN1CCN(CCCc2ccc(N3C(=S)N(c4cnc(C#N)c(C(F)(F)F)c4)C(=O)C34CCC4)cc2)CC1` , thanks.
**A:** 97.3

* * *

# TARGET_UNDER_TEST: F876L mutant Androgen Receptor (AR-F876L) (Homo sapiens, UniProt P10275, F877L)
# Construct: expressed in transfected cells; host or cells: LNCaP (LNCaP F876L)
# ASSAY_PROCEDURE: LNCaP-AR-F876L ANT reporter assay (ARE firefly luciferase, antagonist mode)
# Assay type: cell-based
# SETTINGS: read-out: LNCaP-AR-F876L ANT pIC50 (converted)
OBSERVED_PROPERTY: IC50 (nM)

Some entries whose results are on file:
>>> observed_value("Cc1cc(N2C(=O)C3(CCC3)N(c3ccc(-c4cncnc4)cc3)C2=S)cnc1C#N")
234
>>> observed_value("N#Cc1ncc(N2C(=O)C3(CCC3)N(c3ccc(Oc4ncccn4)cc3)C2=S)cc1C(F)(F)F")
162
>>> observed_value("CN1CCN(CCCNC(=O)c2ccc(N3C(=S)N(c4cnc(C#N)c(C(F)(F)F)c4)C(=O)C34CCC4)cc2F)CC1")
389
>>> observed_value("N#Cc1ncc(N2C(=O)C3(CCC3)N(c3cccc(Oc4ccccc4)c3)C2=S)cc1C(F)(F)F")
977
>>> observed_value("CCCNC(=O)c1ccc(N2C(=S)N(c3cnc(C#N)c(C(F)(F)F)c3)C(=O)C23CCC3)cc1F")
427

I. Cc1cc(N2C(=O)C3(CCC3)N(c3ccc(OC4CCSCC4)cc3)C2=S)cnc1C#N
II. CCOC(=O)CCCNC(=O)c1ccc(N2C(=S)N(c3cnc(C#N)c(C(F)(F)F)c3)C(=O)C23CCC3)cc1F
III. Cc1cc(N2C(=O)C3(CCC3)N(c3ccc(C(=O)Nc4cccc(Cl)c4)c(F)c3)C2=S)cnc1C#N
IV. Cc1cc(N2C(=O)C3(CCC3)N(c3ccc(OC4CCN(C)CC4)c(F)c3)C2=S)cnc1C#N
**Q:** Form: Sort by [IC50] Order [ ascending ] // rank by listing labels in the order requested
**A:** I, II, IV, III

A. CN(CCCNC(=O)c1ccc(N2C(=S)N(c3cnc(C#N)c(C(F)(F)F)c3)C(=O)C23CCC3)cc1F)C1CCCC1
B. Cc1cc(N2C(=O)C3(CCC3)N(c3ccc(OC4CCNCC4)cc3)C2=S)cnc1C#N
C. CN1CCN(CCNC(=O)c2ccc(N3C(=S)N(c4cnc(C#N)c(C(F)(F)F)c4)C(=O)C34CCC4)cc2F)CC1
D. N#Cc1ncc(N2C(=O)C3(CCC3)N(c3ccc(C(=O)NCCc4cccnc4)c(F)c3)C2=S)cc1C(F)(F)F
**Q:** Hey, quick one: sort these by IC50, low to high? State the ranking by listing the labels in the requested order.
**A:** A, D, C, B
